Data credit: patent US20260297042A1

Catalogue of IC50 readings, one per entry.
- tested_target: WEE1 (Homo sapiens)
- Construct: purchased Thermo Fisher PR7373A
- experimental_protocol: Selectivity versus WEE1 assay (ADP-Glo enzymatic assay)
- Type: biochemical
- test_context: ADP-Glo; 15 nM WEE1, 60 minutes at 26° C.; banded

Prompt: Reported IC50 for Cc1ccc(O)c(C)c1NC(=O)c1cnc(Nc2ccn([C@@H]3CCN(C(=O)NC4CC4)C3)n2)s1 : what is it?
Response: > 11 µM

Prompt: Now this one: Cc1ccc(O)c(C)c1NC(=O)c1cnc(Nc2cccc(N3CCC(F)(F)CC3)n2)s1
Response: 1 to 11 µM

Prompt: And what about the molecule CCNC(=O)Cn1cc(C)c(Nc2ncc(C(=O)Nc3c(C)ccc(O)c3C)s2)n1 ?
Response: 1 to 11 µM

Prompt: Next: Cc1ccc(O)c(C)c1NC(=O)c1cnc(NCCCN2CCN(C)CC2)s1
Response: > 11 µM

Prompt: Next molecule up: CCOC(=O)CCCn1ccc(Nc2ncc(C(=O)Nc3c(C)ccc(O)c3C)s2)n1
Response: 1 to 11 µM

Prompt: How about this molecule: Cc1ccc(O)c(C)c1NC(=O)c1cnc(Nc2ccn([C@@H]3CCN(C(=O)Cc4ccncc4)C3)n2)s1
Response: > 11 µM

Prompt: Try the molecule Cc1ccc(O)c(C)c1NC(=O)c1cnc(Nc2ccn(CC(=O)N[C@@H](C)CO)n2)s1
Response: > 11 µM

###

- tested_target: WEE1 (Homo sapiens)
- Construct: purchased Thermo Fisher PR7373A
- experimental_protocol: Selectivity versus WEE1 assay (ADP-Glo enzymatic assay)
- Format: biochemical
- test_context: fold difference in selectivity for PKMYT1 over WEE1; banded; ">N" = at least in this band but could be higher
Counter-ions that a name gives are not always drawn.
measured_attribute: PKMYT1 vs. WEE1 selectivity

Please review the entries below; each comes with its answer.
{"molecule": "Cc1ccc(NC(=O)C(C)(C)C)nc1Nc1ncc(C(=O)Nc2c(C)ccc(O)c2C)s1 [BAA-323]", "result": "Y (1000-5000 fold)"}
{"molecule": "Cc1ccc(O)c(C)c1NC(=O)c1cnc(Nc2ccn([C@@H]3CCNC3)n2)s1 [BAA-056, hydrochloride]", "result": "X (100-<1000 fold)"}
{"molecule": "Cc1ccc(O)c(C)c1NC(=O)c1cnc(Nc2c3cnccc3nn2C)s1 [BAA-248]", "result": "X (100-<1000 fold)"}
{"molecule": "Cc1ccc(O)c(C)c1NC(=O)c1cnc(NCc2cccnc2)s1 [BAA-345]", "result": "Y (1000-5000 fold)"}
{"molecule": "Cc1ccc(O)c(C)c1NC(=O)c1cnc(Nc2cc(C(C)(C)O)n(C)n2)s1 [BAA-256]", "result": "W (10-<100 fold)"}
{"molecule": "Cc1ccc(O)c(C)c1NC(=O)c1cnc(Nc2c3ccncc3nn2C)s1 [BAA-244]", "result": "X (100-<1000 fold)"}
{"molecule": "Cc1ccc(O)c(C)c1NC(=O)c1cnc(Nc2ccn(CCO)n2)s1 [BAA-011]", "result": "W (10-<100 fold)"}

Prompt: Which PKMYT1 vs. WEE1 selectivity is reported for this molecule? Cc1ccc(O)c(C)c1NC(=O)c1cnc(Nc2cncc(-c3ccc(F)cc3)c2)s1 [BAA-305]
Response: W (10-<100 fold)

###

- tested_target: Human PKMYT1 (Homo sapiens, UniProt Q99640)
- Construct: Human PKMYT1 75-362 was cloned as a TEV cleavable 6xHis fusion; 6xHis (TEV cleavable) (cleaved yes); made in house; host or cells: bacterial cells
- Sequence (Q99640 75-362): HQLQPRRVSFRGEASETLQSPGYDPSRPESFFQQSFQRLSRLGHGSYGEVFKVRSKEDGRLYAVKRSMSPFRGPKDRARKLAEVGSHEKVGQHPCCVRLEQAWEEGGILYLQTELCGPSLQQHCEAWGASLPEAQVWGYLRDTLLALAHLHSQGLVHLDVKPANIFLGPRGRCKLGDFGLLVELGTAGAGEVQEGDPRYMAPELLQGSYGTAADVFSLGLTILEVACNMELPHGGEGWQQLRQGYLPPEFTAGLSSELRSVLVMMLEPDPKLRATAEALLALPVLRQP
- experimental_protocol: PKMYT1 biochemical ADP-Glo enzymatic assay
- test_context: ADP-Glo; 15 nM PKMYT1 kinase domain, 500 µM ATP, 60 minutes at 26° C.; banded
# IC50 per record follows

{"compound_string": "CNC(=O)c1cc(Nc2ncc(C(=O)Nc3c(C)ccc(O)c3C)s2)nn1C", "measured_attribute": "IC50", "result": "0.05 to 1 µM"}
{"compound_string": "Cc1cn(-c2ccc(Cl)cn2)nc1Nc1ncc(C(=O)Nc2c(C)ccc(O)c2C)s1", "measured_attribute": "IC50", "result": "0.05 to 1 µM"}
{"compound_string": "Cc1ccc(O)c(C)c1NC(=O)c1cnc(Nc2ccn(CC(=O)N(C)C)n2)s1", "measured_attribute": "IC50", "result": "< 0.05 µM"}
{"compound_string": "Cc1ccc(O)c(C)c1NC(=O)c1cnc(NCCCN2CCN(C(=O)OC(C)(C)C)CC2)s1", "measured_attribute": "IC50", "result": "0.05 to 1 µM"}
{"compound_string": "Cc1ccc(O)c(C)c1NC(=O)c1cnc(Nc2ccn(CC(=O)N3CCN(S(C)(=O)=O)CC3)n2)s1", "measured_attribute": "IC50", "result": "< 0.05 µM"}
{"compound_string": "Cc1ccc(O)c(C)c1NC(=O)c1cnc(Nc2cccc(NC(=O)C(C)(C)C)n2)s1", "measured_attribute": "IC50", "result": "< 0.05 µM"}

Prompt: # lookup: IC50 of Cc1ccc(O)c(C)c1NC(=O)c1cnc(Nc2cc(C(F)(F)F)nc(NCCC(C)(C)C)n2)s1
Response: 0.05 to 1 µM

Prompt: Proceed to Cc1ccc(O)c(C)c1NC(=O)c1cnc(NCCCO)s1
Response: 1 to 11 µM

###

- tested_target: WEE1 (Homo sapiens, UniProt P30291)
- Construct: purchased Thermo Fisher PR7373A
- Sequence (P30291 whole entry): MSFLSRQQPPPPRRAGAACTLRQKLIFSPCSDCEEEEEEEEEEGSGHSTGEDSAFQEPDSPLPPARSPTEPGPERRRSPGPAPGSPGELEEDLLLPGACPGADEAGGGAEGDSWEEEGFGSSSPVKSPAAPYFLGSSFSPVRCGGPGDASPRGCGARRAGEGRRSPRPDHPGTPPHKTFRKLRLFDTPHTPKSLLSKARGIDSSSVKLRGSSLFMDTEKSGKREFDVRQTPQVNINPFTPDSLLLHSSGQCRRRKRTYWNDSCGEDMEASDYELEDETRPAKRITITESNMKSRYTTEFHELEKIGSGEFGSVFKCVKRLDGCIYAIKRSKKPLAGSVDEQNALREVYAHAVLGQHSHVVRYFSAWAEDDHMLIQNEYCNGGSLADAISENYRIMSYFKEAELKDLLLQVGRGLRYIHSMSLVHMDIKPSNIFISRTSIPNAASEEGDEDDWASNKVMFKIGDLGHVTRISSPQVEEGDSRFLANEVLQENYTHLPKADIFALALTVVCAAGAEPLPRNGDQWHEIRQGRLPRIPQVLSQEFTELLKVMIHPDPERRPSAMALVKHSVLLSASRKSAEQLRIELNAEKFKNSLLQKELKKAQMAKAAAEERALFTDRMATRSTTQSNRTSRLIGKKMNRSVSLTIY
- experimental_protocol: Selectivity versus WEE1 assay (ADP-Glo enzymatic assay)
- Assay type: biochemical
- test_context: WEE1 15 nM; ADP-Glo; banded values
pIC50: −log10 of the molar value.
measured_attribute: pIC50

Completed entries (count: 6):
{"compound": "Cc1cn(CC(=O)N2CCCC2C(F)(F)F)nc1Nc1ncc(C(=O)Nc2c(C)ccc(O)c2C)s1 (stereo not drawn)", "measured_attribute": "pIC50", "result": "4.96 to 6.00"}
{"compound": "Cc1cn(CC2CCOC2)nc1Nc1ncc(C(=O)Nc2c(C)ccc(O)c2C)s1 (stereo not drawn)", "measured_attribute": "pIC50", "result": "4.96 to 6.00"}
{"compound": "Cc1cn(CC(=O)N2CCCC2(C)C)nc1Nc1ncc(C(=O)Nc2c(C)ccc(O)c2C)s1", "measured_attribute": "pIC50", "result": "4.96 to 6.00"}
{"compound": "Cc1ccc(O)c(C)c1NC(=O)c1cnc(Nc2ccccn2)s1", "measured_attribute": "pIC50", "result": "< 4.96"}
{"compound": "Cc1cn(CC(F)F)nc1Nc1ncc(C(=O)Nc2c(C)ccc(O)c2C)s1", "measured_attribute": "pIC50", "result": "4.96 to 6.00"}
{"compound": "Cc1cncc(Nc2ncc(C(=O)Nc3c(C)ccc(O)c3C)s2)n1", "measured_attribute": "pIC50", "result": "< 4.96"}

Prompt: Reported pIC50, compound Cc1ccc(O)c(C)c1NC(=O)c1cnc(Nc2cn(CC(=O)N3CCCC3)nc2C)s1 : ____
Response: < 4.96

Prompt: Moving on to the next compound: Cc1cn(C(CO)C(=O)N2CCCC2)nc1Nc1ncc(C(=O)Nc2c(C)ccc(O)c2C)s1 (stereo not drawn)
Response: 4.96 to 6.00

Prompt: Cc1nc(Nc2ncc(C(=O)Nc3c(C)ccc(O)c3C)s2)cc(N2CCOCC2)n1 , same question.
Response: 6.00 to 7.30

###

- tested_target: WEE1 (Homo sapiens, UniProt P30291)
- Construct: purchased Thermo Fisher PR7373A
- experimental_protocol: Selectivity versus WEE1 assay (ADP-Glo enzymatic assay)
- Assay type: biochemical
- test_context: fold difference in selectivity for PKMYT1 over WEE1; banded
Where a name gives a salt, the structure may show the parent alone.
measured_attribute: PKMYT1 vs. WEE1 selectivity

{"molecule": "Cc1ccc(O)c(C)c1NC(=O)c1cnc(Nc2cc(C)n(CCC#N)n2)s1 [BAA-518]", "PKMYT1 vs. WEE1 selectivity": "W (10-<100 fold)"}
{"molecule": "COc1ccnc(Nc2ncc(C(=O)Nc3c(C)ccc(O)c3C)s2)c1 [BAA-418]", "PKMYT1 vs. WEE1 selectivity": "X (100-<1000 fold)"}
{"molecule": "Cc1ccc(O)c(C)c1NC(=O)c1cnc(Nc2nn(CC#N)cc2Br)s1 [BAA-586]", "PKMYT1 vs. WEE1 selectivity": "W (10-<100 fold)"}
{"molecule": "Cc1ccc(F)c(Nc2ncc(C(=O)Nc3c(C)ccc(O)c3C)s2)n1 [BAA-420]", "PKMYT1 vs. WEE1 selectivity": "Y (1000-5000 fold)"}

Prompt: Could you tell me which PKMYT1 vs. WEE1 selectivity is on file for CCOc1ccccc1Nc1ncc(C(=O)Nc2c(C)ccc(O)c2C)s1 [BAA-539, TFA salt] ?
Response: X (100-<1000 fold)

Prompt: Then Cc1cn(-c2cnn(C(F)F)c2)nc1Nc1ncc(C(=O)Nc2c(C)ccc(O)c2C)s1 [BAA-394] ?
Response: X (100-<1000 fold)

Prompt: Now give it for CCc1c[nH]nc1Nc1ncc(C(=O)Nc2c(C)ccc(O)c2C)s1 [BAA-594] too.
Response: X (100-<1000 fold)

Prompt: What about this molecule? CCN(C)C(=O)Cn1cc(C)c(Nc2ncc(C(=O)Nc3c(C)ccc(O)c3C)s2)n1 [BAA-489]
Response: X (100-<1000 fold)

Prompt: Ok, now Cc1cn(-c2ncc(C(=O)Nc3c(C)ccc(O)c3C)s2)nc1Nc1ncc(C(=O)Nc2c(C)ccc(O)c2C)s1 [BAA-393]
Response: X (100-<1000 fold)

Prompt: Likewise for Cc1ccc(O)c(C)c1NC(=O)c1cnc(Nc2nn(C)cc2Br)s1 [BAA-473] ?
Response: X (100-<1000 fold)

Prompt: What do we get for CCc1c(O)ccc(C)c1NC(=O)c1cnc(Nc2ccn(CC(=O)N3CCCC3)n2)s1 [BAA-475] ?
Response: Y (1000-5000 fold)

Prompt: Queued: Cc1cccc(Nc2ncc(C(=O)Nc3c(C)ccc(O)c3C)s2)n1 [BAA-407]
Response: X (100-<1000 fold)

Prompt: Now try O=C(Nc1c(F)ccc(O)c1Cl)c1cnc(Nc2ccn(CC(=O)N3CCCC3)n2)s1 [BAA-482] .
Response: Y (1000-5000 fold)

Prompt: Field entry: Cc1ccc(O)c(C)c1NC(=O)c1cnc(Nc2cccc3c2CCC3)s1 [BAA-443]
Response: X (100-<1000 fold)

Prompt: Same question for CCOC(=O)c1oc(Nc2ncc(C(=O)Nc3c(C)ccc(O)c3C)s2)nc1C [BAA-446] please.
Response: X (100-<1000 fold)

Prompt: Entry Cc1ccc(O)c(C)c1NC(=O)c1cnc(Nc2cc(C)n(C(C)C(=O)N3CCN(C)CC3)n2)s1 (stereo not drawn) [BAA-511] please
Response: W (10-<100 fold)

Prompt: Would you kindly repeat that for Cc1ccc(O)c(C)c1NC(=O)c1cnc(Nc2cnn(C)c2C)s1 [BAA-520] ?
Response: X (100-<1000 fold)

Prompt: Note, next up: CCc1cn(CC#N)nc1Nc1ncc(C(=O)Nc2c(C)ccc(O)c2C)s1 [BAA-590, TFA salt]
Response: W (10-<100 fold)

Prompt: Lookup COc1ccccc1Nc1ncc(C(=O)Nc2c(C)ccc(O)c2C)s1 [BAA-528, TFA salt]
Response: X (100-<1000 fold)

Prompt: Next: CCn1nc(Nc2ncc(C(=O)Nc3c(C)ccc(O)c3C)s2)c2cc(F)ccc21 [BAA-459]
Response: X (100-<1000 fold)

Prompt: Next up: Cc1ccc(O)c(C)c1NC(=O)c1cnc(Nc2ncc(F)cc2Cl)s1 [BAA-404]
Response: Y (1000-5000 fold)
